# System: full length human vWF
# EXPERIMENT_SUMMARY: 3-point dot blot screen, full length human vWF
# Assay type: binding
# MEASUREMENT_PARAMETERS: 20 nM full length human vWF, ratio of fraction of aptamer bound with target protein to fraction bound without protein
# Description: When a significant positive ratio of binding of DNA in the presence of human or rabbit vWF A1 domain versus in the absence of protein was seen, the pools were cloned using the TOPO TA cloning kit (Invitrogen Cat. #45-0641, Carlsbad, Calif.) according to the manufacturer's instructions. Round 7 and 11 pool templates were cloned and sequenced (218 total sequences), producing 146 unique clones within 12 sequence families of which sequences from six families show vWF target binding activity. […]
Quick reference: Screen- Human/No Protein of the listed items.
Give the figure only, with no unit attached.

MOLECULE	Screen- Human/No Protein
AMX236.E6: DNA SELEX 2 aptamer clone (nucleic acid, DNA, backbone not given here, DNA SELEX 2 aptamer clone) CTACCTACGATCTGACTAGCTTGGTAGCGACCCTGTGGAGCTGCGGTTTGGTCGACGTCAGCTTACTCTCATGTAGTTCC	1.31

Now let's try a different one.
Form: molecule = AMX238.D5: DNA SELEX 2 aptamer clone (nucleic acid, DNA, backbone not given here, DNA SELEX 2 aptamer clone) DNA: CTACCTACGATCTGACTAGCTCCAGTGTTTTATTCAATAACCGTGCGGTGTCTCCGTGAGCTTACTCTCATGTAGTTCC ; Screen- Human/No Protein = 1.46
